// reported Ki for each item listed
experiment: Inhibition against kappa receptor from displacement studies using 1.5 nM [3H]U-69593 in rhesus monkey cortex membrane
REPORTED PROPERTY: Ki (nM)

>>> quantitative_result("CCCCCCN1CC[C@@]2(C)c3cc(O)ccc3CC1[C@H]2C")
2260
>>> quantitative_result("CCCCCN1CC[C@]2(C)c3cc(O)ccc3CC1[C@@H]2C")
23
>>> quantitative_result("C[C@@H]1C2Cc3ccc(O)cc3[C@]1(C)CCN2")
3780
>>> quantitative_result("C[C@H]1C2Cc3ccc(O)cc3[C@@]1(C)CCN2")
113
>>> quantitative_result("CCCCCCCCCCN1CC[C@]2(C)c3cc(O)ccc3CC1[C@H]2C")
2260
>>> quantitative_result("CCCN1CC[C@]2(C)c3cc(O)ccc3CC1[C@@H]2C")
2
>>> quantitative_result("C[C@H]1C2Cc3ccc(O)cc3[C@@]1(C)CCN2C")
17
>>> quantitative_result("C[C@@H]1C2Cc3ccc(O)cc3[C@]1(C)CCN2C")
3780
>>> quantitative_result("CCCCCCCCCCN1CC[C@]2(C)c3cc(O)ccc3CC1[C@@H]2C")
2260
>>> quantitative_result("CCCCCCN1CC[C@]2(C)c3cc(O)ccc3CC1[C@@H]2C")
43
>>> quantitative_result("CCCCN1CC[C@]2(C)c3cc(O)ccc3CC1[C@@H]2C")
4.9

All values here come from BindingDB's records for doi:10.1021/jm00046a026.
